- System: Haemophilus parasuis
- testProtocol: in vitro susceptibility, MIC by mini broth dilution
- Format: cell-based
valueKind: MIC values, Haemophilus parasuis (ug/mi)

INSERT INTO results (molecule, recordedmeasurement) VALUES
  ('CCCCCCNC[C@]1(O)[C@H](C)O[C@@H](O[C@H]2[C@H](C)[C@@H](O[C@@H]3O[C@H](C)C[C@H](N(C)C)[C@H]3O)[C@](C)(O)C[C@@H](C)N(CCC)C[C@H](C)[C@@H](O)[C@](C)(O)[C@@H](CC)OC(=O)[C@@H]2C)C[C@@]1(C)OC [syzx-115]', 0.25);

====

- Test system: Haemophilus parasuis
- testProtocol: in vitro susceptibility, MIC by mini broth dilution
- Type: cell-based
valueKind: MIC values, Haemophilus parasuis (ug/mi)

INSERT INTO measurements (molecule, unitstring, recordedmeasurement) VALUES
  ('CCCN1C[C@H](C)[C@@H](O)[C@](C)(O)[C@@H](CC)OC(=O)[C@H](C)[C@@H](O[C@H]2C[C@@](C)(OC)[C@](O)(CN3CCNCC3)[C@H](C)O2)[C@H](C)[C@@H](O[C@@H]2O[C@H](C)C[C@H](N(C)C)[C@H]2O)[C@](C)(O)C[C@H]1C', 'ug/mi', 0.25),
  ('CCCN1C[C@H](C)[C@@H](O)[C@](C)(O)[C@@H](CC)OC(=O)[C@H](C)[C@@H](O[C@H]2C[C@@](C)(OC)[C@](O)(CNc3cc(C(F)(F)F)cc(C(F)(F)F)c3)[C@H](C)O2)[C@H](C)[C@@H](O[C@@H]2O[C@H](C)C[C@H](N(C)C)[C@H]2O)[C@](C)(O)C[C@H]1C', 'ug/mi', 2),
  ('CCCN1CC(C)C(O)C(C)(O)C(CC)OC(=O)C(C)C(OC2CC(C)(OC)C(O)(CNNc3ccc(F)cc3)C(C)O2)C(C)C(OC2OC(C)CC(N(C)C)C2O)C(C)(O)CC1C (stereo not shown)', 'ug/mi', 0.25);

====

Reported MIC values, Actinobacillus pleuropneumoniae CVCC262 values are given for each entry in this list.
- Tested on: Actinobacillus pleuropneumoniae CVCC262
- testProtocol: in vitro susceptibility, MIC by mini broth dilution
- Type: cell-based
- conditionParameters: strain CVCC262
valueKind: MIC values, Actinobacillus pleuropneumoniae CVCC262 (ug/mi)

INSERT INTO results (compound, recordedmeasurement) VALUES
  ('CCCN1C[C@H](C)[C@@H](O)[C@](C)(O)[C@@H](CC)OC(=O)[C@H](C)[C@@H](O[C@H]2C[C@@](C)(OC)[C@](O)(CNC(CC)CO)[C@H](C)O2)[C@H](C)[C@@H](O[C@@H]2O[C@H](C)C[C@H](N(C)C)[C@H]2O)[C@](C)(O)C[C@H]1C (stereo partly shown) [syzx-151]', 0.25),
  ('CC[C@H]1OC(=O)[C@H](C)[C@@H](O[C@H]2C[C@@](C)(OC)[C@](O)(CNc3cc(Cl)ccc3C)[C@H](C)O2)[C@H](C)[C@@H](O[C@@H]2O[C@H](C)C[C@H](N(C)C)[C@H]2O)[C@](C)(O)C[C@@H](C)NC[C@H](C)[C@@H](O)[C@]1(C)O [syzx-94]', 0.5),
  ('CCCN1CC(C)C(O)C(C)(O)C(CC)OC(=O)C(C)C(OC2CC(C)(OC)C(O)(Cn3ccnn3)C(C)O2)C(C)C(OC2OC(C)CC(N(C)C)C2O)C(C)(O)CC1C (stereo not shown) [syzx-109]', 0.25),
  ('CC[C@H]1OC(=O)[C@H](C)[C@@H](O[C@H]2C[C@@](C)(OC)[C@](O)(CNCc3ccccc3F)[C@H](C)O2)[C@H](C)[C@@H](O[C@@H]2O[C@H](C)C[C@H](N(C)C)[C@H]2O)[C@](C)(O)C[C@@H](C)NC[C@H](C)[C@@H](O)[C@]1(C)O [syzx-92]', 0.5);
